The origin of these recorded values is patent US20230218710A1.

- Test Target: ProLink tagged human APJ (Apelin Receptor) in CHO-K1 AGTRL1 β-Arrestin cells (human, UniProt P35414 1-380)
- Sequence (P35414 whole entry): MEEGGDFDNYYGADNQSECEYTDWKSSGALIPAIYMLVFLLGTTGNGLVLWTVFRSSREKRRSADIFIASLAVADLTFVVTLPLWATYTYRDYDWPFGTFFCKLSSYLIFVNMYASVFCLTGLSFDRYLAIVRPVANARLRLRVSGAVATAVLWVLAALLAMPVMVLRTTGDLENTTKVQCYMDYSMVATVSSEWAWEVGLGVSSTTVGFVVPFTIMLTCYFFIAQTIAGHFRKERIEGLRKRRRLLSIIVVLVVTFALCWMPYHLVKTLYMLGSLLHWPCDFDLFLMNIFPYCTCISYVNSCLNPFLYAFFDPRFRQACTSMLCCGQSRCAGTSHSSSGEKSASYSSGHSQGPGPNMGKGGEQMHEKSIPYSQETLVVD
- Assay Protocol: cell-based or functional assay
Square brackets hold non-standard residues; d marks the D form. Primed or numbered codes have the meaning given here. Ends that are not written are not given here. PEG12″ = polyethylene glycol with 12 units (PEG-12); PEG12′ = not defined here
Property Name: β-Arrestin recruitment, Percent of Apelin-13 Control Activity (10 µM peptide) (%)
Give bare numbers, in %.

Use the examples below as a reference point.
INSERT INTO results (binder, observed_result) VALUES
  ('RRMMGMVFQSLEG[dA] [SEQ ID NO: 39]', 0),
  ('RRMMGMVAQCLEG[dA] [SEQ ID NO: 30]', -1),
  ('RRMVFQCLCG[dA] (cysteine pairing not given here) [SEQ ID NO: 19]', 1),
  ('MMGMV [SEQ ID NO: 44]', 0);

List β-Arrestin recruitment, Percent of Apelin-13 Control Activity (10 µM peptide) for every entry below, keeping the order given.
1. RRMMGMVFQCLEG[dA] [SEQ ID NO: 14]
2. Ac-RRMMGMVFQSLCG[dA] [SEQ ID NO: 61]

1. 0
2. 5

List β-Arrestin recruitment, Percent of Apelin-13 Control Activity (10 µM peptide) for every entry below, keeping the order given.
1. RRMMGMVFQ [SEQ ID NO: 58]
2. MMGMVFQSLCG[dA] [SEQ ID NO: 49]
3. RMMGMVF [SEQ ID NO: 50]
4. RRMMGMVFQCLCG[dA]K(PEG12″) (cysteine pairing not given here) [SEQ ID NO: 21]
5. RRMMGMVYQCLEG[dA] [SEQ ID NO: 29]
6. RXLLGLVFQSLCGA ((Aib) = aminoisobutyric acid at position 2; C-terminal (dA) = D-alanine) [SEQ ID NO: 35]

1. 0
2. 1
3. 0
4. 1
5. 0
6. 17

List β-Arrestin recruitment, Percent of Apelin-13 Control Activity (10 µM peptide) for every entry below, keeping the order given.
1. RRLLGLVFQSLCG[dA] [SEQ ID NO: 33]
2. RRMVYQCLCG[dA] (cysteine pairing not given here) [SEQ ID NO: 22]
3. RRMMGMVFQELCG[dA] [SEQ ID NO: 13]

1. 9
2. 0
3. 1

List β-Arrestin recruitment, Percent of Apelin-13 Control Activity (10 µM peptide) for every entry below, keeping the order given.
1. RRMMGMVFQSL [SEQ ID NO: 60]
2. MMGMVFQS [SEQ ID NO: 47]
3. [PEG12′]KRRIIGIVFQCLCG[dA] (cysteine pairing not given here) [SEQ ID NO: 42]
4. RREMVYQCLCG[dA] (cysteine pairing not given here) [SEQ ID NO: 25]
5. RRMMGMV [SEQ ID NO: 56]
6. RRMMGMVYQCLCG[dA] (cysteine pairing not given here) [SEQ ID NO: 10]
7. MMGMVFQ [SEQ ID NO: 46]
8. RRMMGMVEQCLCG[dA] (cysteine pairing not given here) [SEQ ID NO: 12]

1. 0
2. 1
3. 8
4. -1
5. 0
6. 3
7. 0
8. -1

List β-Arrestin recruitment, Percent of Apelin-13 Control Activity (10 µM peptide) for every entry below, keeping the order given.
1. RRMMGMVFQCLCG[dA] (cysteine pairing not given here) [SEQ ID NO: 8]
2. RRMMGMVF [SEQ ID NO: 57]
3. RRMVYQCLEG[dA] [SEQ ID NO: 24]
4. RMMGMVFQ [SEQ ID NO: 51]
5. RRMMGM [SEQ ID NO: 55]

1. 17
2. 0
3. -1
4. 0
5. 1
